- Tested on: Kuramochi cells labeled with mApple-H2B
- procedureText: IncuCyte Cell Proliferation Assay
- Type: cell-based
- setupConditions: 72 h
measuredMetric: IC50

Prompt: Find the recorded IC50 belonging to C[C@@H](OCC12CCC(CC1)OC2)[C@H](NC(=O)[C@@H]1CN(C(=O)c2cncs2)CC12CN(C(=O)[C@H]1CC1(C)C)C2)C(=O)N1CCC2(CC1)COC2 and report it.
Response: 5 to 20 µM

Prompt: Cool, now COC[C@H]1CCCN(C(=O)[C@@H](NC(=O)[C@@H]2CN(C(=O)c3cncs3)CC23CN(C(=O)[C@H]2CC2(C)C)C3)[C@@H](C)OC(C)C2CCC(F)(F)CC2)C1 (stereo partly drawn)
Response: 0.5 to 5 µM

Prompt: Cool, now CNC(=O)[C@@H](NC(=O)[C@@H]1CN(C(=O)c2cncs2)CC12CN(C(=O)[C@H]1CC1(C)C)C2)[C@H](O)CC1CCCCC1
Response: > 20 µM

Prompt: Cool, now CNC(=O)[C@@H](NC(=O)[C@@H]1CN(C(=O)c2cncs2)CC12CN(C(=O)[C@H]1CC1(C)C)C2)[C@@H](C)OCC1CC2CCC1C2 (stereo partly drawn)
Response: ≤ 0.5 µM

Prompt: Cool, now C[C@@H](OCC12CCC(CC1)OC2)[C@H](NC(=O)[C@@H]1CN(C(=O)c2cnco2)CC12CN(C(=O)[C@H]1CC1(C)C)C2)C(C)(C)O
Response: > 20 µM

Prompt: Cool, now CNC(=O)[C@@H](NC(=O)[C@@H]1CN(C(=O)c2cncs2)CC12CN(C(=O)[C@H]1CC1(C)C)C2)[C@@H](C)OC(C)C1CCCCC1 (stereo partly drawn)
Response: 0.5 to 5 µM

====

- Test system: Kuramochi cells labeled with mApple-H2B
- procedureText: IncuCyte Cell Proliferation Assay
- Assay type: cell-based
- setupConditions: 72 h
measuredMetric: IC50

The examples below pair each entry with its known result.
Prompt: Find the recorded IC50 belonging to C[C@@H](OCC12CCC(CC1)OC2)[C@H](NC(=O)[C@@H]1CN(C(=O)c2cnco2)CC12CN(C(=O)C(C)(C)C1CC1)C2)C(C)(C)O [I-448] and report it.
Response: > 20000 nM

Prompt: Cool, now C[C@@H](OCC1CCCCC1)[C@@H](CO)NC(=O)[C@@H]1CN(C(=O)c2cnn(Cc3ccccc3)c2)CC12CN(C(=O)[C@H]1CC1(C)C)C2 [I-135A]
Response: 500 to 5000 nM

Please find the next molecule below.
Prompt: Find the recorded IC50 belonging to C[C@@H](OCC1CCCCC1)[C@H](NC(=O)[C@@H]1CN(C(=O)c2cnn(Cc3ccccc3)c2)CC12CN(C(=O)[C@H]1CC1(C)C)C2)C(=O)N1CCC(c2nccs2)CC1 [I-445] and report it.
Response: ≤ 500 nM

====

- Test system: Kuramochi cells labeled with mApple-H2B
- procedureText: IncuCyte Cell Proliferation Assay
- Type: cell-based
- setupConditions: 72 h
# reported IC50; entries follow

Prompt: Find the recorded IC50 belonging to CNC(=O)[C@@H](NC(=O)[C@@H]1CN(C(=O)c2cncs2)CC12CN(Cc1ccn[nH]1)C2)[C@@H](C)OCC12CCC(CC1)OC2 and report it.
Response: > 20 µM

Prompt: Cool, now CC1(C)C[C@@H]1C(=O)N1CC2(CN(C(=O)c3cnn(Cc4ccccc4)c3)C[C@H]2C(=O)NCc2ccc(O)nn2)C1
Response: > 20 µM

Prompt: Cool, now CNC(=O)[C@@H](NC(=O)[C@@H]1CN(C(=O)c2cncs2)CC12CN(Cc1cnco1)C2)[C@@H](C)OCC12CCC(CC1)OC2
Response: > 20 µM

Prompt: Cool, now CNC(=O)[C@@H](NC(=O)[C@@H]1CN(C(=O)c2cnn(Cc3ccccc3)c2)CC12CN(C(=O)[C@H]1CC1(C)C)C2)[C@@H](C)NCC1CCCCC1
Response: 5 to 20 µM

Prompt: Cool, now Cc1ccc(CNC(=O)[C@@H]2CN(C(=O)c3cnn(Cc4ccccn4)c3)CC23CN(C(=O)[C@H]2CC2(C)C)C3)nn1
Response: > 20 µM

====

- Tested on: Kuramochi cells labeled with mApple-H2B
- procedureText: IncuCyte Cell Proliferation Assay
- Assay type: cell-based
- setupConditions: 72 h
pIC50: −log10 of the molar value.
measuredMetric: pIC50

The examples below pair each entry with its known result.
Prompt: Find the recorded pIC50 belonging to CNC(=O)[C@@H](NC(=O)[C@@H]1CN(C(=O)c2cncs2)CC12CN(C(=O)[C@H]1CC1(C)C)C2)[C@@H](C)OC1C2CC3CC(C2)CC1C3 (some centres unmarked) [I-463] and report it.
Response: 5.30 to 6.30

Prompt: Cool, now C[C@@H](OCc1ccccc1)[C@H](NC(=O)C1CN(C(=O)c2cnn(Cc3ccccc3)c2)CC12CN(C(=O)[C@H]1CC1(C)C)C2)C(=O)N1CCCCC1 (some centres unmarked) [I-97]
Response: 5.30 to 6.30

Prompt: Cool, now C[C@@H](OCc1ccccc1)[C@H](NC(=O)C1CN(C(=O)c2cnn(Cc3ccccc3)c2)CC12CN(C(=O)C1CC1(C)C)C2)C(=O)NCCCCCNC(=O)OC(C)(C)C (some centres unmarked) [I-52]
Response: 5.30 to 6.30

Prompt: Cool, now CNC(=O)[C@@H](NC(=O)[C@]1(C)CN(C(=O)c2cnn(Cc3ccccc3)c2)CC12CN(C(=O)[C@H]1CC1(C)C)C2)[C@@H](C)OCC1CCCCC1 [I-499A]
Response: < 4.70

Prompt: Cool, now C[C@H](OC1CCN(C(=O)[C@@H]2CN(C(=O)c3cnn(Cc4ccccc4)c3)CC23CN(C(=O)[C@H]2CC2(C)C)C3)CC1)c1ccccc1 [I-275]
Response: < 4.70

***
Prompt: Find the recorded pIC50 belonging to C[C@@H](OCC1CCOCC1)[C@H](NC(=O)[C@@H]1CN(C(=O)c2cn[nH]c2)CC12CN(C(=O)[C@H]1CC1(C)C)C2)C(=O)N1CCC(F)(F)CC1 [I-297] and report it.
Response: < 4.70

Prompt: Cool, now COc1ccc(CNC(=O)[C@@H]2CN(C(=O)c3cnn(Cc4ccccc4)c3)CC23CN(C(=O)[C@H]2CC2(C)C)C3)nn1 [I-371]
Response: < 4.70

Prompt: Cool, now Cc1ccc(CNC(=O)[C@@H]2CN(C(=O)c3cnc(Cc4ccccc4)s3)CC23CN(C(=O)[C@H]2CC2(C)C)C3)nn1 [I-405]
Response: < 4.70

Prompt: Cool, now CC1(C)C[C@@H]1C(=O)N1CC2(CN(C(=O)c3cnn(Cc4ccccc4)c3)C[C@H]2C(=O)NCc2ccc(Cl)nn2)C1 [I-376]
Response: < 4.70

Prompt: Cool, now COC[C@H]1CCCN(C(=O)[C@@H](NC(=O)[C@@H]2CN(C(=O)c3cncs3)CC23CN(C(=O)[C@H]2CC2(C)C)C3)[C@@H](C)OCc2ccc(F)cc2)C1 [I-318]
Response: 5.30 to 6.30

Prompt: Cool, now CNC(=O)[C@@H](NC(=O)[C@H]1CN(C(=O)c2cnn(Cc3ccccc3)c2)CC12CN(C(=O)[C@H]1CC1(C)C)C2)[C@@H](C)OCC1CCC(C(F)(F)F)CC1 (some centres unmarked) [I-141B]
Response: 4.70 to 5.30

Prompt: Cool, now CNC(=O)C(NC(=O)[C@@H]1CN(C(=O)c2cncs2)CC12CN(C(=O)C(C)(C)C1CC1)C2)c1cccc(C2CCOCC2)n1 (some centres unmarked) [I-338]
Response: < 4.70

Prompt: Cool, now [2H]C([2H])([2H])OC[C@H]1CCCN(C(=O)[C@@H](NC(=O)[C@@H]2CN(C(=O)c3cncs3)CC23CN(C(=O)C(C)(C)C2CC2)C3)[C@@H](C)OCC23CCC(CC2)OC3)C1 [I-459]
Response: 4.70 to 5.30

====

- System: Kuramochi cells labeled with mApple-H2B
- procedureText: IncuCyte Cell Proliferation Assay
- Format: cell-based
- setupConditions: 72 h
measuredMetric: IC50

The examples below pair each entry with its known result.
Prompt: For the record C[C@@H](OCC12CCC(CC1)CC2)[C@H](NC(=O)[C@@H]1CN(C(=O)c2cncs2)CC12CN(C(=O)[C@H]1CC1(C)C)C2)C(C)(C)O [I-304] , what value of IC50 is listed for Kuramochi cells labeled with mApple-H2B?
Response: 0.5 to 5 µM

Prompt: Cool, now CNC(=O)[C@@H](NC(=O)[C@H]1CN(C(=O)c2cnn(Cc3ccccc3)c2)CC12CN(C(=O)[C@H]1CC1(C)C)C2)[C@@H](C)OCC(C)C [I-137B]
Response: > 20 µM

Prompt: Cool, now CNC(=O)[C@@H](NC(=O)[C@@H]1CN(C(=O)c2cncs2)CC12CN(CC1COC1)C2)[C@@H](C)OCC12CCC(CC1)OC2 [I-348]
Response: > 20 µM

Prompt: Cool, now CC1(C)C[C@@H]1C(=O)N1CC2(CN(C(=O)c3cncs3)C[C@H]2C(=O)NC(c2cccc(C3CCOCC3)n2)C2CCCO2)C1 (stereo partly drawn) [I-497]
Response: > 20 µM

Prompt: Cool, now C[C@@H](OCC1CCCCC1)[C@H](NC(=O)[C@@H]1CN(C(=O)c2cnn(Cc3ccccc3)c2)CC12CN(C(=O)[C@H]1CC1(C)C)C2)C(=O)N1CCOCC1 [I-152A]
Response: ≤ 0.5 µM

Prompt: Cool, now C[C@@H](OCC1CCCCC1)[C@H](NC(=O)[C@@H]1CN(C(=O)c2cnn(Cc3ccccc3)c2)CC12CN(C(=O)[C@H]1CC1(C)C)C2)C(=O)N1CCC(c2ccncc2)CC1 [I-300]
Response: ≤ 0.5 µM

Prompt: Cool, now C[C@@H](OCC12CCC(CC1)OC2)[C@H](NC(=O)[C@@H]1CN(C(=O)c2cncs2)CC12CN(C(=O)[C@H]1CC1(C)C)C2)C(=O)N1CCCC2(COC2)C1 [I-453]
Response: 5 to 20 µM

Prompt: Cool, now C[C@@H](OCC1CCC(F)(F)CC1)[C@H](NC(=O)[C@@H]1CN(C(=O)c2cncs2)CC12CN(C(=O)[C@H]1CC1(C)C)C2)C(=O)N1CC2CCC(C1)O2 [I-469]
Response: ≤ 0.5 µM

***
Prompt: For the record COC[C@H]1CCCN(C(=O)[C@@H](NC(=O)[C@@H]2CN(C(=O)c3cncs3)CC23CN(C(=O)[C@H]2CC2(C)C)C3)[C@@H](C)O[C@@H](C)C2CCCCC2)C1 [I-369] , what value of IC50 is listed for Kuramochi cells labeled with mApple-H2B?
Response: 0.5 to 5 µM

Prompt: Cool, now CNC(=O)[C@@H](NC(=O)[C@@H]1CN(C(=O)c2cnn(Cc3ccccc3)c2)CC12CN(C(=O)NC(C)C)C2)[C@@H](C)OCC1CCCCC1 [I-267]
Response: > 20 µM

Prompt: Cool, now CO[C@H]1COCC[C@H]1NC(=O)[C@H]1CN(C(=O)c2cnn(Cc3ccccc3)c2)CC12CN(C(=O)[C@H]1CC1(C)C)C2 [I-134B]
Response: > 20 µM

Prompt: Cool, now C[C@@H](OCc1ccc(C(F)(F)F)cc1)[C@H](NC(=O)[C@@H]1CN(C(=O)c2cncs2)CC12CN(C(=O)[C@H]1CC1(C)C)C2)C(=O)N1C2CCC1COC2 [I-470]
Response: 0.5 to 5 µM
